Listing of entries alongside the reported CC50.
Test: Cytotoxicity against human erythrocytes
Type: toxicity, cell-based, Erythrocyte
Numbers only; they are read as µg/mL.

| smiles text | unit name | numeric value |
| --- | --- | --- |
| OCc1cn(Cc2ccc(Cl)cc2)nn1 | µg/mL | 88.6 |

Quick one: CC50 of `O=[N+]([O-])c1ccc(Cn2cc(-c3ccccc3CO)nn2)cc1` ?
33.3

====

Experiment: Cytotoxicity against African green monkey Vero cells assessed as cell growth inhibition incubated for 24 hrs by fluorescence based assay
Type: toxicity
Conditions: African green monkey (Chlorocebus sabaeus)
quantity measured: IC50 at 24 h (µM)
Numbers only; they are read as µM.

Quick one: IC50 at 24 h of `OB1OCc2cc(OCc3cn(CCN4CCN(c5ccnc6cc(Cl)ccc56)CC4)nn3)ccc21` ?
82.4
